Reference for the values: PubChem BioAssay (EPA / NIEHS)

TARGET DESC: guinea pig Opioid, Kappa 1 Receptor (OpiateK), OPRK1 (gene 100135587)
MEASUREMENT NOTES: NVS_GPCR_gOpiateK: NovaScreen (NVS) G Protein-Coupled Receptor Assay for guinea pig Opioid, Kappa 1 Receptor (OpiateK) (AID 2283252);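 note: radioligand displacement from kappa opioid receptor in guinea pig cerebellar membranes; active means reduced radioligand binding relative to DMSO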
Results filed as inconclusive are left out. Calls of active or inactive are those of the source. Rule for the calls: active = hit-call score of the fitted dose curve at least 0.9, where 1 is the maximum; inconclusive = response in the unintended direction; inactive = score below 0.9.
Answer with one of the outcomes given here: 1 for active, -1 for inactive

Some solved cases for reference:
COMPOUND | LABEL
CCCCC(O)(Cn1cncn1)c1ccc(Cl)cc1Cl (centres undefined) | 1
CCN(CC)C(=O)C(C)Oc1cccc2ccccc12 (centres undefined) | 1
CCCN(CC)CC1COC2(CCC(C(C)(C)C)CC2)O1 (centres undefined) | 1

Please find the next compound below.
Ask: Just curious, what result did CO/N=C(/C1=NOCCO1)c1ccccc1Oc1ncnc(Oc2ccccc2Cl)c1F get here?
Reply: -1
